molecular target: Bile acid receptor (Homo sapiens); experiment: Agonist activity at FXR (unknown origin) by FRET assay
Sequence (Q96RI1 whole entry): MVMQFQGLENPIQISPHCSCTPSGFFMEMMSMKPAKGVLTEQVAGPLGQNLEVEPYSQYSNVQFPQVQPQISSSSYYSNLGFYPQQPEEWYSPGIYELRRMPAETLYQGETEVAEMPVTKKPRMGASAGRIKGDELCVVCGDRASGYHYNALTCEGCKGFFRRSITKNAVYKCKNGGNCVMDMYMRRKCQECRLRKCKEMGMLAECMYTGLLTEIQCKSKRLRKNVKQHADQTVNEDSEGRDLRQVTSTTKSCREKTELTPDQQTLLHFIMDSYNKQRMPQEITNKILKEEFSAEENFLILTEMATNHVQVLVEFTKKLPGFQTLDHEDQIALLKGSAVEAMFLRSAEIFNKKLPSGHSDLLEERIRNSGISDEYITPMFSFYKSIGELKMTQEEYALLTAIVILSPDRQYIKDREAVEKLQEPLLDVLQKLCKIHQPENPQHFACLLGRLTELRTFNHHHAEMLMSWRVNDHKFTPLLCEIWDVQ
pEC50: −log10 of the molar value.
Reported Endpoint: pEC50

Query: What value of pEC50 has been reported for the following compound? `CC(C)n1nc(C(=O)O)cc1[C@H]1C[C@](O)(c2ccc(OCc3c(-c4c(Cl)cccc4Cl)noc3C3CC3)cc2Cl)C1`
Reply: > 7.60

* * *

experiment: Clearance in human liver microsomes; format: ADME, Microsome; settings: liver microsomes, read-out: CLH
Reported Endpoint: microsomal CLint (µL/min/mg)
Answer with a number only, understood to be in µL/min/mg.

Query: I have this compound here, `O=C(Nc1nnn[nH]1)c1cc(Cl)c(Oc2ncccc2C(=O)N2CCN(C3CC3)c3ccccc32)cc1Cl` , and I need its recorded microsomal CLint.
Reply: 56
